- Tested on: NIH/3T3 cells, CRL-1658
- assay_notes: Cytotoxicity colorimetric (tetrazolium) assay
- Format: cell-based, mouse
- setup_conditions: NIH/3T3 cells; one hour with compound in serum-free media
I'd be grateful if you could share measured EC50 NIH 3T3 (cytotoxicity) for these entries.
Answers are plain numbers, in µg/mL.

NCCC#Cc1cc(-c2cc(OCCCN)cc(-c3cc(C#CCCN)cc(C(F)(F)F)c3)c2)cc(C(F)(F)F)c1 [Compound 122] : 14.5
NCC#Cc1cc(C#CCN)cc(-c2cc(-c3cc(C#CCN)cc(C#CCN)c3)cc(C(F)(F)F)c2)c1 [Compound 125] : 26.1
N=C(N)NCC#Cc1cc(C#CCNC(=N)N)cc(-c2cc(-c3cc(C#CCNC(=N)N)cc(C#CCNC(=N)N)c3)cc(C(F)(F)F)c2)c1 [Compound 126] : 59.7

Proceed to the following item.
The recorded EC50 NIH 3T3 (cytotoxicity) for NCCN(CCN)Cc1cccc(-c2ccc3[nH]c4ccc(-c5cccc(CN(CCN)CCN)c5)cc4c3c2)c1 [Compound 179] is 179

---

- System: Pseudomonas aeruginosa ATCC 10145
- assay_notes: Minimum Inhibitory Concentration (MIC), modified microbroth dilution
- Type: cell-based
- setup_conditions: P. aeruginosa (10145); overnight incubation (18 hours)
reported_endpoint: MIC50 P. Aeruginosa (µg/mL)
Answers are plain numbers, in µg/mL.

Answered cases to consult:
NCCc1cccc(-c2ccc3c(c2)C(=O)c2cc(-c4cccc(CCN)c4)cc(-c4cccc(CCN)c4)c2CC3)c1 : 6.25
N=C(N)NCCCOc1cc(-c2ccc3sc4ccc(-c5cc(OCCCNC(=N)N)c(OCCCNC(=N)N)c(OCCCNC(=N)N)c5)cc4c3c2)cc(OCCCNC(=N)N)c1OCCCNC(=N)N : 12.5
NCCc1cccc(-c2ccc3c(c2)C(=O)c2cc(-c4cccc(CCN)c4)ccc2CC3)c1 : 25
c1cc(CN2CCNCC2)cc(-c2ccc3sc4ccc(-c5cccc(CN6CCNCC6)c5)cc4c3c2)c1 : 25
CCn1c2ccc(-c3cccc(N)c3)cc2c2cc(-c3cccc(N)c3)ccc21 : 12.5

Please give MIC50 P. Aeruginosa, item by item, for the list that follows.
1. NCCCOc1cc(OCCCN)cc(-c2ccc3sc4ccc(-c5cc(OCCCN)cc(OCCCN)c5)cc4c3c2)c1
2. NCCN(CCN)Cc1cccc(-c2ccc3sc4ccc(-c5cccc(CN(CCN)CCN)c5)cc4c3c2)c1

Found:
[3.13, 3.13]

Please give MIC50 P. Aeruginosa, item by item, for the list that follows.
1. Cl.Cl.NCCCc1cccc(-c2cccc(-c3cccc(CCCN)c3)c2)c1
2. N=C(N)NCCCc1cccc(-c2cc(-c3cccc(CCCNC(=N)N)c3)cc(C(F)(F)F)c2)c1
3. NCC#Cc1cc(C#CCN)cc(-c2cc(-c3cc(C#CCN)cc(C#CCN)c3)cc(C(F)(F)F)c2)c1
4. NCCCOc1cc(-c2ccc3sc4ccc(-c5cc(OCCCN)c(OCCCN)c(OCCCN)c5)cc4c3c2)cc(OCCCN)c1OCCCN

Found:
1. 100
2. 12.5
3. 12.5
4. 6.25

Please give MIC50 P. Aeruginosa, item by item, for the list that follows.
1. NCCCOc1cc(OCCCN)cc(-c2ccc(F)c(-c3cc(-c4cc(OCCCN)cc(OCCCN)c4)ccc3F)c2)c1
2. Cc1cc(-c2cc(OCCCN)cc(OCCCN)c2)cc(-c2cc(-c3cc(OCCCN)cc(OCCCN)c3)cc(C)c2F)c1F
3. Nc1cccc(-c2ccc3[nH]c4ccc(-c5cccc(N)c5)cc4c3c2)c1

Found:
1: 12.5; 2: 6.25; 3: 12.5
